Cited source: the supplement of paper PMC5998384

- Test system: HeLa Kyoto;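 further: HeLa Kyoto cells synchronized by double thymidine or nocodazole block, proteins quantified by TMT10plex mass spectrometry, three independent biological replicates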
- Procedure Summary: melting temperature (median over replicates), in situ; higher = more thermally stable
- Condition Label: cell cycle stage: G1/S
# melting temperature annotations
All answers are understood in °C, so give the number only.

Sample answers from the record:
- MSELEQLRQEAEQLRNQIRDARKACGDSTLTQITAGLDPVGRIQMRTRRTLRGHLAKIYAMHWGTDSRLLVSASQDGKLIIWDSYTTNKVHAIPLRSSWVMTCAYAPSGNFVACGGLDNICSIYSLKTREGNVRVSRELPGHTGYLSCCRFLDDNQIITSSGDTTCALWDIETGQQTVGFAGHSGDVMSLSLAPDGRTFVSGACDASIKLWDVRDSMCRQTFIGHESDINAVAFFPNGYAFTTGSDDATCRLFDLRADQELLMYSHDNIICGITSVAFSRSGRLLLAGYDDFNCNIWDAMKGDRAGVLAGHDNRVSCLGVTDDGMAVATGSWDSFLKIWN [GNB2]: 55.6
- MATQAHSLSYAGCNFLRQRLVLSTLSGRPVKIRKIRARDDNPGLRDFEASFIRLLDKITNGSRIEINQTGTTLYYQPGLLYGGSVEHDCSVLRGIGYYLESLLCLAPFMKHPLKIVLRGVTNDQVDPSVDVLKATALPLLKQFGIDGESFELKIVRRGMPPGGGGEVVFSCPVRKVLKPIQLTDPGKIKRIRGMAYSVRVSPQMANRIVDSARSILNKFIPDIYIYTDHMKGVNSGKSPGFGLSLVAETTSGTFLSAELASNPQGQGAAVLPEDLGRNCARLLLEEIYRGGCVDSTNQSLALLLMTLGQQDVSKVLLGPLSPYTIEFLRHLKSFFQIMFKIETKPCGEELKGGDKVLMTCVGIGFSNLSKTLK [RCL1]: 52.4
- MAPLLLQLAVLGAALAAAALVLISIVAFTTATKMPALHRHEEEKFFLNAKGQKETLPSIWDSPTKQLSVVVPSYNEEKRLPVMMDEALSYLEKRQKRDPAFTYEVIVVDDGSKDQTSKVAFKYCQKYGSDKVRVITLVKNRGKGGAIRMGIFSSRGEKILMADADGATKFPDVEKLEKGLNDLQPWPNQMAIACGSRAHLEKESIAQRSYFRTLLMYGFHFLVWFLCVKGIRDTQCGFKLFTREAASRTFSSLHVERWAFDVELLYIAQFFKIPIAEIAVNWTEIEGSKLVPFWSWLQMGKDLLFIRLRYLTGAWRLEQTRKMN [ALG5]: 53
- MSIFTPTNQIRLTNVAVVRMKRAGKRFEIACYKNKVVGWRSGVEKDLDEVLQTHSVFVNVSKGQVAKKEDLISAFGTDDQTEICKQILTKGEVQVSDKERHTQLEQMFRDIATIVADKCVNPETKRPYTVILIERAMKDIHYSVKTNKSTKQQALEVIKQLKEKMKIERAHMRLRFILPVNEGKKLKEKLKPLIKVIESEDYGQQLEIVCLIDPGCFREIDELIKKETKGKGSLEVLNLKDVEEGDEKFE [SBDS]: 50.4
- MKGKEEKEGGARLGAGGGSPEKSPSAQELKEQGNRLFVGRKYPEAAACYGRAITRNPLVAVYYTNRALCYLKMQQHEQALADCRRALELDGQSVKAHFFLGQCQLEMESYDEAIANLQRAYSLAKEQRLNFGDDIPSALRIAKKKRWNSIEERRIHQESELHSYLSRLIAAERERELEECQRNHEGDEDDSHVRAQQACIEAKHDKYMADMDELFSQVDEKRKKRDIPDYLCGKISFELMREPCITPSGITYDRKDIEEHLQRVGHFDPVTRSPLTQEQLIPNLAMKEVIDAFISENGWVEDY [STUB1]: 46.7

Ask | Recorded melting temperature of MAKAYDHLFKLLLIGDSGVGKTCLIIRFAEDNFNNTYISTIGIDFKIRTVDIEGKKIKLQVWDTAGQERFKTITTAYYRGAMGIILVYDITDEKSFENIQNWMKSIKENASAGVERLLLGNKCDMEAKRKVQKEQADKLAREHGIRFFETSAKSSMNVDEAFSSLARDILLKSGGRRSGNGNKPPSTDLKTCDKKNTNKCSLG [RAB13] , please.
Reply | 53.5

Ask | Recorded melting temperature of MSESLVVCDVAEDLVEKLRKFRFRKETNNAAIIMKIDKDKRLVVLDEELEGISPDELKDELPERQPRFIVYSYKYQHDDGRVSYPLCFIFSSPVGCKPEQQMMYAGSKNKLVQTAELTKVFEIRNTEDLTEEWLREKLGFFH [GMFB] , please.
Reply | 55.4

Ask | Recorded melting temperature of MAATAAEAVASGSGEPREEAGALGPAWDESQLRSYSFPTRPIPRLSQSDPRAEELIENEEPVVLTDTNLVYPALKWDLEYLQENIGNGDFSVYSASTHKFLYYDEKKMANFQNFKPRSNREEMKFHEFVEKLQDIQQRGGEERLYLQQTLNDTVGRKIVMDFLGFNWNWINKQQGKRGWGQLTSNLLLIGMEGNVTPAHYDEQQNFFAQIKGYKRCILFPPDQFECLYPYPVHHPCDRQSQVDFDNPDYERFPNFQNVVGYETVVGPGDVLYIPMYWWHHIESLLNGGITITVNFWYKGAPTPKRIEYPLKAHQKVAIMRNIEKMLGEALGNPQEVGPLLNTMIKGRYN [HIF1AN] , please.
Reply | 52.3

Ask | Recorded melting temperature of MLQTLYDYFWWERLWLPVNLTWADLEDRDGRVYAKASDLYITLPLALLFLIVRYFFELYVATPLAALLNIKEKTRLRAPPNATLEHFYLTSGKQPKQVEVELLSRQSGLSGRQVERWFRRRRNQDRPSLLKKFREASWRFTFYLIAFIAGMAVIVDKPWFYDMKKVWEGYPIQSTIPSQYWYYMIELSFYWSLLFSIASDVKRKDFKEQIIHHVATIILISFSWFANYIRAGTLIMALHDSSDYLLESAKMFNYAGWKNTCNNIFIVFAIVFIITRLVILPFWILHCTLVYPLELYPAFFGYYFFNSMMGVLQLLHIFWAYLILRMAHKFITGKLVEDERSDREETESSEGEEAAAGGGAKSRPLANGHPILNNNHRKND [CERS2] , please.
Reply | 52.7

Ask | Recorded melting temperature of MATETVELHKLKLAELKQECLARGLETKGIKQDLIHRLQAYLEEHAEEEANEEDVLGDETEEEETKPIELPVKEEEPPEKTVDVAAEKKVVKITSEIPQTERMQKRAERFNVPVSLESKKAARAARFGISSVPTKGLSSDNKPMVNLDKLKERAQRFGLNVSSISRKSEDDEKLKKRKERFGIVTSSAGTGTTEDTEAKKRKRAERFGIA [SARNP] , please.
Reply | 57.9
